# assay: Cytotoxicity (MTS cell viability) in HIV-1 experiments
# testConditions: human, CEM-SS cells
Where a SMILES comes first, the peptide text is derived from it.
measuredQuantity: viability at 10 micrograms per ml (%)
Lab book: enter the figure in %, no units written.

Lab book: viability at 10 micrograms per ml of CC(C)C[C@H](NC(=O)[C@@H]1CCCN1)C(=O)NCC(N)=O [MSHRIF, Pro-Leu-Gly-NH2] (H-Pro-Leu-Gly-NH2) noted as 98.4

---

# assay: Cytotoxicity testing in MRC-5 cells (CellTiter 96)
# Assay type: cell-based, human
# testConditions: human, 6 days incubation, read-out: % Cell viability
Where a SMILES comes first, the peptide text is derived from it.
measuredQuantity: viability at 144 h (%)
Lab book: enter the figure in %, no units written.

Lab book: viability at 144 h of CC(C)C[C@H](NC(=O)[C@@H]1CCCN1)C(=O)NCC(N)=O [MSHRIF, Pro-Leu-Gly-NH2] (H-Pro-Leu-Gly-NH2) noted as 100
